Target: COUP transcription factor 2 (Homo sapiens) (UniProt P24468)
Sequence (P24468 whole entry, looked up): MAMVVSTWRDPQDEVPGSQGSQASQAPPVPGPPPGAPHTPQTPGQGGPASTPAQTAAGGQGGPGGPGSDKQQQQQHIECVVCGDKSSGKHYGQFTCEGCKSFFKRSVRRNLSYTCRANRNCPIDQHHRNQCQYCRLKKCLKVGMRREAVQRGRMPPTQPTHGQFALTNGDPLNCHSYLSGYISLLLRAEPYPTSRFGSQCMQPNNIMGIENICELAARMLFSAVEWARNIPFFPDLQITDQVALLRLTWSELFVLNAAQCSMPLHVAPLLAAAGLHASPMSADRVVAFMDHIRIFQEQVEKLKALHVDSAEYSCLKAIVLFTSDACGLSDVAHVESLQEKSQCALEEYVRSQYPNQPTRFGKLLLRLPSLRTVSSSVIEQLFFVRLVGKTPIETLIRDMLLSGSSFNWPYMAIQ
Test: COUP-TFII reporter suppression in human cells – cell-based, luciferase reporter, HEK293T, luminescence, primary screen (AID 686940);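 also: cells cotransfected with COUP-TFII expression vector driving the NGFI-A reporter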
Details: HEK293T NGFI-A luciferase reporter, at 8.6 µM
The whole screen tested about 370,000 compounds, of which about 2,600 (0.7%) were called active.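 The calls were made as follows: active = inhibition above a per-plate cutoff, mean inhibition of test wells between control levels plus 3 SD (cut at about 38% in these data); inactive = the rest.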 This is one part of a sample in which actives are shown more often than they occur.
Would you mind answering with one of these outcomes? y = active, n = inactive

Example results:
Compound: Oc1ccc(/C=C/c2c(F)cccc2F)c2cccnc12
Cat: n
--
Compound: Cc1cc(C)nc(NC(=S)N2CCN(c3ccc(C(F)(F)F)cn3)CC2)c1
Cat: n

Problem: // return assay outcome for Fc1ccc2nc(COCc3nc4ccc(F)cc4[nH]3)[nH]c2c1
Solution: n

Problem: And for Cc1ccc(-n2c(SCC(=O)N3c4ccccc4Sc4ccccc43)nnc2-c2ccncc2)cc1 ?
Solution: n

Problem: And for COc1cccc(CNC(=O)CNS(=O)(=O)c2ccc3nc(C)sc3c2)c1OC ?
Solution: n

Problem: And for O=C(NC(Nc1nc2ccc([N+](=O)[O-])cc2s1)(C(F)(F)F)C(F)(F)F)c1ccccc1 ?
Solution: y

Problem: And for Cc1ccccc1CN1CCCCC(NC(=O)c2cccc(C#N)c2)C1=O (configuration not stated) ?
Solution: n

Problem: And for Cc1ccc(-c2nc(CS(=O)CC(=O)NC3CCCC3)c(C)o2)cc1 (configuration not stated) ?
Solution: n

Problem: And for Cc1ccc(-c2nc3c(C)cc(Br)cn3c2Cc2ccccc2)cc1 ?
Solution: n

Problem: And for COc1ccc([C@H]2OC(=O)C[C@H]2C(=O)N2CCN(c3ccccc3F)CC2)cc1OC ?
Solution: n

Problem: And for COc1ccc(-c2nc3ccc(Br)cn3c2Cc2ccc(C)cc2)cc1OC ?
Solution: n

Problem: And for COC[C@@H]1CCCN1c1ccc2c(c1)O[C@H](C)CCN(C1CC1)S2(=O)=O ?
Solution: n
